Numbers sourced from patent US10428115B2.

TARGET OR SYSTEM: rat brain bradykinin receptors
PROTOCOL DESCRIPTION: Radioligand competition binding against [3H]DALKD in rat brain membranes
RUN CONDITIONS: Table 5; [3H]DALKD, rat brain bradykinin receptors, pH 6.8; read-out: IC50 (nM), cell marked at pH 6.8
Measured IC50 by item
Kindly answer with a numeric value in nM, unit omitted.

SEQUENCE RECORD: FLRRIRRPK [SH114, Phe-Leu-Arg-Arg-Ile-Arg-Arg-Pro-Lys]
TARGET OR SYSTEM: rat brain bradykinin receptors
IC50 (nM): 74

Given GGFLRIRPKLK [CYF103] , state its recorded IC50.
41
